Species on record: Rattus norvegicus
Experiment: Inhibition of rat recombinant geranylgeranyltransferase type I expressed in Escherichia coli assessed as residual enzyme activity for geranylgeranylation of K-Ras4B at 50 uM incubated for 30 mins in presence of [3H]GGPP by scintillation counting assay relative to control

{"columns": ["Compound", "Unit Tag", "Activity"],
 "data": [
  ["Cc1ccccc1S(=O)(=O)N1[C@@H](c2ccc(Cl)cc2)C(C(=O)O)=C[C@H]1C(C)(C)C (relative stereo)", "%", 13.3],
  ["Cc1ccc([C@@H]2C[C@@H](SCCc3ccccc3)[C@H](C(=O)O)CN2S(C)(=O)=O)cc1", "%", 76.9],
  ["Cc1ccc([C@@H]2C[C@@H](SCc3ccccc3)[C@H](C(=O)O)CN2S(=O)(=O)c2ccc(Cl)cc2)cc1", "%", 40.3]
]}

* * *

Species: Rattus norvegicus
Assay: Inhibition of rat recombinant geranylgeranyltransferase type I expressed in Escherichia coli assessed as residual enzyme activity for geranylgeranylation of K-Ras4B at 50 uM incubated for 30 mins in presence of [3H]GGPP by scintillation counting assay relative to control
Decision: Activity compared against 80%; not below it gives Satisfied, below it gives Not satisfied.

{"columns": ["Molecule Smiles", "Classification"],
 "data": [
  ["COc1cccc([C@@H]2C[C@@H](SCc3ccccc3)[C@H](C(=O)O)CN2S(=O)(=O)c2ccc(C)cc2)c1", "Not satisfied"],
  ["Cc1ccc(S(=O)(=O)N2[C@@H](c3cccc(Cl)c3)C(C(=O)O)=CC[C@H]2c2cccc(C)c2)cc1", "Not satisfied"],
  ["CC[C@@H]1[C@@H](Sc2ccc(OC)cc2)[C@@H](C(=O)O)[C@H](c2cccc(Cl)c2)N1S(=O)(=O)c1ccc(C)cc1", "Not satisfied"],
  ["CCCCS[C@@H]1C[C@@H](c2ccc(C)cc2)N(S(=O)(=O)c2ccc(C)cc2)C[C@H]1C(=O)O", "Satisfied"],
  ["O=C(O)C1=CC[C@@H](c2ccc(Cl)cc2)N(S(=O)(=O)c2ccc(Cl)cc2)[C@H]1c1ccc(Br)cc1", "Not satisfied"],
  ["CCCS[C@@H]1C[C@@H](c2ccc(C)cc2)N(S(C)(=O)=O)C[C@H]1C(=O)O", "Satisfied"],
  ["Cc1ccc([C@H]2C(C(=O)O)=CC[C@@H](c3ccc(C)cc3)N2S(=O)(=O)c2ccc(Cl)cc2)cc1", "Not satisfied"],
  ["CCCCCS[C@@H]1C[C@@H](c2ccc(Cl)cc2)N(S(=O)(=O)c2ccc(C)cc2)C[C@H]1C(=O)O", "Not satisfied"],
  ["COc1ccc(S[C@@H]2C[C@@H](c3cccc(Cl)c3)N(S(=O)(=O)c3ccc(C)cc3)C[C@H]2C(=O)O)cc1", "Satisfied"],
  ["Cc1ccc([C@@H]2C[C@@H](SCC(C)C)[C@H](C(=O)O)CN2S(=O)(=O)c2ccc(C)cc2)cc1", "Satisfied"],
  ["CCCCS[C@@H]1C[C@@H](c2ccc(OC)c(OC)c2)N(S(=O)(=O)c2ccc(C)cc2)C[C@H]1C(=O)O", "Satisfied"],
  ["C=CCS[C@@H]1C[C@@H](c2ccc(C)cc2)N(S(=O)(=O)c2ccc(Cl)cc2)C[C@H]1C(=O)O", "Not satisfied"],
  ["Cc1ccc(S(=O)(=O)N2[C@@H](c3cccc(Cl)c3)C(C(=O)O)=CC[C@H]2c2ccc(F)cc2)cc1", "Not satisfied"],
  ["CCCS[C@@H]1C[C@@H](c2ccc(OC)cc2)N(S(=O)(=O)c2ccc(C)cc2)C[C@H]1C(=O)O", "Satisfied"],
  ["Cc1ccc(S(=O)(=O)N2C[C@@H](C(=O)O)[C@H](Sc3ccc(Cl)cc3)C[C@H]2c2ccccc2)cc1", "Not satisfied"]
]}

* * *

Recorded measurements of Activity, one per entry
Species on record: Rattus norvegicus
Assay: Inhibition of rat recombinant geranylgeranyltransferase type I expressed in Escherichia coli assessed as residual enzyme activity for geranylgeranylation of K-Ras4B at 50 uM incubated for 30 mins in presence of [3H]GGPP by scintillation counting assay relative to control

{"columns": ["Molecule Smiles", "Unit Tag", "Activity"],
 "data": [
  ["Cc1ccc(S(=O)(=O)N2[C@@H](c3ccc(C(C)(C)C)cc3)C(C(=O)O)=CC[C@H]2c2ccc(Cl)cc2)cc1", "%", 102],
  ["CCS[C@@H]1C[C@@H](c2ccc(Cl)cc2)N(S(=O)(=O)c2ccc(C)cc2)C[C@H]1C(=O)O", "%", 87.8],
  ["Cc1ccc([C@@H]2CC=C(C(=O)O)[C@H](c3ccc(Cl)cc3)N2S(=O)(=O)c2ccccc2)cc1", "%", 79.9],
  ["CCCCCCS[C@@H]1C[C@@H](c2ccc(OCC)cc2)N(S(=O)(=O)c2ccc(C)cc2)C[C@H]1C(=O)O", "%", 67.6],
  ["COc1ccc([C@@H]2CC=C(C(=O)O)[C@H](c3cccc(C)c3)N2S(=O)(=O)c2ccc(C)cc2)cc1OC", "%", 76],
  ["Cc1ccc([C@H]2C(C(=O)O)=CC[C@@H](c3ccc(F)cc3)N2S(=O)(=O)c2ccc(C)cc2)cc1", "%", 54.8],
  ["CCS[C@@H]1C[C@@H](c2ccc(OC)cc2)N(S(=O)(=O)c2ccc(Cl)cc2)C[C@H]1C(=O)O", "%", 72.9]
]}

* * *

Organism: Rattus norvegicus
Experiment: Inhibition of rat recombinant geranylgeranyltransferase type I expressed in Escherichia coli assessed as residual enzyme activity for geranylgeranylation of RhoA at 50 uM incubated for 30 mins in presence of [3H]GGPP by scintillation counting assay relative to control

{"columns": ["Molecule Smiles", "Activity [%]"],
 "data": [
  ["CCC[C@@H]1[C@@H](Sc2ccc(OC)cc2)[C@@H](C(=O)O)[C@H](c2ccc(Cl)c(Cl)c2)N1S(=O)(=O)c1ccc(C)cc1", 1.1],
  ["Cc1ccc(S(=O)(=O)N2C[C@@H](C(=O)O)[C@H](SCc3ccccc3)C[C@H]2c2cccc(Br)c2)cc1", 2.9],
  ["CC[C@@H]1[C@@H](Sc2ccc(OC)cc2)[C@@H](C(=O)O)[C@H](c2cccc(Cl)c2)N1S(=O)(=O)c1ccc(C)cc1", 6.5],
  ["Cc1ccc(S(=O)(=O)N2C[C@@H](C(=O)O)[C@H](Sc3ccc(Cl)cc3)C[C@H]2c2ccc(Cl)cc2)cc1", 4.9],
  ["CCC[C@@H]1[C@@H](Sc2ccc(C)cc2)[C@@H](C(=O)O)[C@H](c2cccc(F)c2)N1S(=O)(=O)c1ccc(C)cc1", 4.1],
  ["O=C(O)C1=CC[C@@H](c2ccc(Cl)cc2)N(S(=O)(=O)c2ccc(Cl)cc2)[C@H]1c1cccc(Br)c1", 5],
  ["Cc1ccc(S(=O)(=O)N2[C@@H](c3ccccc3)C(C(=O)O)=CC[C@H]2c2cccc(Br)c2)cc1", 19.4],
  ["CC[C@@H]1[C@@H](SCCC(=O)OC(C)(C)C)[C@@H](C(=O)O)[C@H](c2ccc(Cl)c(Cl)c2)N1S(=O)(=O)c1ccc(C)cc1", 7.6],
  ["Cc1ccccc1S(=O)(=O)N1C[C@@H](C(=O)O)[C@H](Sc2ccc(Cl)cc2)C[C@H]1c1ccc(Cl)cc1", 13],
  ["C=CCS[C@H]1[C@@H](C(=O)O)[C@H](c2ccc(Cl)cc2)N(S(=O)(=O)c2ccccc2C)[C@@H]1CC1CCCC1", 4.9],
  ["CC(C)(C)OC(=O)CCS[C@H]1[C@@H](C(=O)O)[C@H](c2ccc(Cl)cc2)N(S(=O)(=O)c2ccccc2)[C@@H]1CC1CCCC1", 9.7],
  ["CCc1ccc([C@@H]2C[C@@H](SCCc3ccccc3)[C@H](C(=O)O)CN2S(=O)(=O)c2ccc(C)cc2)cc1", 2.9],
  ["Cc1ccc([C@@H]2C[C@@H](SCCc3ccccc3)[C@H](C(=O)O)CN2S(=O)(=O)c2ccc(C)cc2)cc1", 12.4],
  ["Cc1ccc(S(=O)(=O)N2C[C@@H](C(=O)O)[C@H](SCC(C)C)C[C@H]2c2cccc(Br)c2)cc1", 1.3],
  ["Cc1ccc(S(=O)(=O)N2C[C@@H](C(=O)O)[C@H](Sc3ccccc3)C[C@H]2c2cccc(Cl)c2)cc1", 8.3],
  ["C=CCS[C@H]1[C@@H](C(=O)O)[C@H](c2ccc(Cl)c(Cl)c2)N(S(=O)(=O)c2ccc(C)cc2)[C@@H]1CCCC", 9.6],
  ["CCCCS[C@H]1[C@@H](C(=O)O)[C@H](c2cccc(F)c2)N(S(=O)(=O)c2ccc(C)cc2)[C@@H]1CCCC", 7.1],
  ["COc1ccc([C@@H]2C[C@@H](Sc3ccc(Cl)cc3)[C@H](C(=O)O)CN2S(=O)(=O)c2ccccc2)cc1", 13.4],
  ["C=CCS[C@H]1[C@@H](C(=O)O)[C@H](c2ccc(Cl)c(Cl)c2)N(S(=O)(=O)c2ccc(C)cc2)[C@@H]1CCCCCC", 6.8],
  ["CCCCS[C@@H]1C[C@@H](c2cccc(Br)c2)N(S(=O)(=O)c2ccc(C)cc2)C[C@H]1C(=O)O", -1.5],
  ["Cc1ccc(S(=O)(=O)N2[C@@H](c3cccc(Cl)c3)C(C(=O)O)=CC[C@H]2c2cccc(Cl)c2)cc1", 6],
  ["C=CCS[C@H]1[C@@H](C(=O)O)[C@H](c2ccc(Br)cc2)N(S(=O)(=O)c2ccc(C)cc2)[C@@H]1CCCCCC", 5.5],
  ["C=CCS[C@@H]1C[C@@H](c2cccc(Br)c2)N(S(=O)(=O)c2ccc(C)cc2)C[C@H]1C(=O)O", 13.6],
  ["Cc1ccc([C@@H]2C[C@@H](SCc3ccc(Cl)cc3)[C@H](C(=O)O)CN2S(=O)(=O)c2ccccc2)cc1", 17.2],
  ["CCCCCS[C@H]1[C@@H](C(=O)O)[C@H](c2cccc(F)c2)N(S(=O)(=O)c2ccc(C)cc2)[C@@H]1CCCC", 7.1],
  ["COc1ccc([C@@H]2C[C@@H](SCCc3ccccc3)[C@H](C(=O)O)CN2S(=O)(=O)c2ccccc2C)cc1", 6],
  ["COc1ccc([C@@H]2C[C@@H](SCc3ccc(Cl)cc3)[C@H](C(=O)O)CN2S(=O)(=O)c2ccccc2C)cc1", 0.5],
  ["Cc1ccc(S(=O)(=O)N2[C@@H](c3cccc(C)c3)C(C(=O)O)=CC[C@H]2c2cccc(Br)c2)cc1", 14.3],
  ["CC(C)CCS[C@H]1[C@@H](C(=O)O)[C@H](c2ccc(Cl)cc2)N(S(=O)(=O)c2ccccc2)[C@@H]1C(C)C", 5.9],
  ["Cc1ccc([C@@H]2C[C@@H](Sc3ccccc3)[C@H](C(=O)O)CN2S(=O)(=O)c2ccccc2C)cc1", 17.5]
]}
